These data points were gathered from ChEMBL document CHEMBL1126969.

// reported inhibition for each item listed
Assayed System: Arachidonate 5-lipoxygenase (Bos taurus) (UniProt Q9BEG3)
Run Description: Inhibitory activity against 5-lipoxygenase (inhibition of 5-HETE and LTB4 biosynthesis) in bovine polymorphonuclear leukocytes (PMNL) at 30 uM
Assay type: cell-based
Numbers only; they are read as %.

Solved entries:
O=C1c2c(O)cccc2C(=Cc2ccccc2)c2cccc(O)c21    34
O=C1c2c(O)cccc2C(=CCCCc2ccccc2)c2cccc(O)c21    21
O=C1c2c(O)cccc2C(C(=O)Cc2ccc(OCc3ccccc3)c(OCc3ccccc3)c2)c2cccc(O)c21    34

// query Input CC(=O)Oc1cccc2cc3cccc(OC(C)=O)c3c(OC(C)=O)c12 [TRIACETOXYANTHRENE] , output reported inhibition.
// result 15

// query Input O=C1c2c(O)cccc2C(=Cc2ccc(C(F)(F)F)cc2)c2cccc(O)c21 , output reported inhibition.
// result 33

// query Input O=C1c2c(O)cccc2C(=CCc2ccccc2)c2cccc(O)c21 , output reported inhibition.
// result 30

// query Input COc1cc(C=C2c3cccc(O)c3C(=O)c3c(O)cccc32)cc(OC)c1OC , output reported inhibition.
// result 10

* * *

// reported pIC50 for each item listed
Assayed System: Arachidonate 5-lipoxygenase (Bos taurus, UniProt Q9BEG3)
Sequence (Q9BEG3 whole entry): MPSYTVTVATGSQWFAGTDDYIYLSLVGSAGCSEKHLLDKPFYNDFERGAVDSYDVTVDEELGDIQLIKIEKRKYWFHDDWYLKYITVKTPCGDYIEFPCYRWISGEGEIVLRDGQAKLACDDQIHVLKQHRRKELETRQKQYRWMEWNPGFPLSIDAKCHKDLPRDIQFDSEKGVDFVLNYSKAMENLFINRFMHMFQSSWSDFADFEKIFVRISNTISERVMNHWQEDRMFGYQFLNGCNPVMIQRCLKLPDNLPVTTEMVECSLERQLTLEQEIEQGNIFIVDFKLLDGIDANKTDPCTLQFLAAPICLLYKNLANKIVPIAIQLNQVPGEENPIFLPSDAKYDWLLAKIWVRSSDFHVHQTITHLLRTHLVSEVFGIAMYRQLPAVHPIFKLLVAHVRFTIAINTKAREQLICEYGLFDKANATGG
Run Description: Inhibitory activity against 5-lipoxygenase (inhibition of 5-HETE and LTB4 biosynthesis) in bovine polymorphonuclear leukocytes (PMNL).
A value of pIC50 is the negative decimal logarithm of a concentration given in moles per litre.

// query Input O=C1c2c(O)cccc2C(C(=O)Cc2ccc(OCc3ccccc3)cc2)c2cccc(O)c21 , output reported pIC50.
// result 6.22

// query Input O=C1c2c(O)cccc2C(C(=O)CCCc2ccccc2)c2cccc(O)c21 , output reported pIC50.
// result 6.52

// query Input O=C1c2c(O)cccc2C(C(=O)CCc2ccc(O)cc2)c2cccc(O)c21 , output reported pIC50.
// result 6.00

// query Input O=C1c2c(O)cccc2C(=Cc2cc(O)c(O)c(O)c2)c2cccc(O)c21 , output reported pIC50.
// result 6.40

// query Input COc1cccc(/C=C/C(=O)C2c3cccc(O)c3C(=O)c3c(O)cccc32)c1 , output reported pIC50.
// result 5.52

// query Input O=C1c2c(O)cccc2C(C(=O)CCCCc2ccccc2)c2cccc(O)c21 , output reported pIC50.
// result 5.70

// query Input O=C1c2c(O)cccc2C(=Cc2ccc(O)c(O)c2)c2cccc(O)c21 , output reported pIC50.
// result 6.30

// query Input O=C1c2c(O)cccc2C(C(=O)Cc2ccc(O)c(O)c2)c2cccc(O)c21 , output reported pIC50.
// result 4.96

* * *

Run Description: Reducing activity against 2,2-diphenyl-1-picrylhydrazyl
Assay type: ADME
Classification field: enter true (1) for kDPPH values not below 10 M⁻¹ s⁻¹, false (0) for values below it.

O=C1c2c(O)cccc2C(=Cc2ccc([N+](=O)[O-])cc2)c2cccc(O)c21    false (0)
O=C1c2c(O)cccc2C(=CCCCc2ccccc2)c2cccc(O)c21    false (0)
O=C1c2c(O)cccc2C(C(=O)Cc2ccc(O)cc2)c2cccc(O)c21    true (1)
COc1ccc(CCC=C2c3cccc(O)c3C(=O)c3c(O)cccc32)cc1    false (0)
COc1cc(C=C2c3cccc(O)c3C(=O)c3c(O)cccc32)cc(OC)c1OC    false (0)
O=C1c2c(O)cccc2C(C(=O)Cc2ccccc2)c2cccc(O)c21    true (1)
O=C1c2c(O)cccc2C(=Cc2ccccc2)c2cccc(O)c21    false (0)
CCCC(=O)C1c2cccc(O)c2C(=O)c2c(O)cccc21    false (0)

// query Reported kDPPH reaches at least 10 M⁻¹ s⁻¹ for O=C1c2c(O)cccc2C(C(=O)CCc2ccc(OCc3ccccc3)cc2)c2cccc(O)c21 ?
// result false (0)

// query Reported kDPPH reaches at least 10 M⁻¹ s⁻¹ for O=C1c2c(O)cccc2C(=CCCc2ccccc2)c2cccc(O)c21 ?
// result false (0)

// query Reported kDPPH reaches at least 10 M⁻¹ s⁻¹ for O=C1c2c(O)cccc2C(C(=O)Cc2cc(O)c(O)c(O)c2)c2cccc(O)c21 ?
// result true (1)

// query Reported kDPPH reaches at least 10 M⁻¹ s⁻¹ for COc1ccc(CCC(=O)C2c3cccc(O)c3C(=O)c3c(O)cccc32)cc1OC ?
// result false (0)

// query Reported kDPPH reaches at least 10 M⁻¹ s⁻¹ for O=C1c2c(O)cccc2C(C(=O)CCc2ccccc2)c2cccc(O)c21 ?
// result true (1)
